assay name: Pharmacokinetic determination in KM mice
Type: in vivo
setup conditions: mouse, in vivo, iv; KM mice, i.v. 1 mg/kg; read-out: Apparent distribution Vss
value type: Vd (L/kg)
Give your result in L/kg as a bare value.

Exercise: Recorded Vd for C[C@H]1[C@@H](c2ccc(F)c(F)c2OC2COC2)[C@H](C(=O)Nc2ccc(F)c(C(=N)NO)c2)O[C@@]1(C)C(F)(F)F , please?
Key: 1.4

* * *

assay name: Pharmacokinetic determination in KM mice
Assay type: in vivo
setup conditions: mouse, in vivo, po; KM mice, i.g. 10 mg/kg; read-out: Half-life t1/2 (converted)
value type: half-life (min)
Give your result in min as a bare value.

Exercise: Recorded half-life for C[C@H]1[C@@H](c2ccc(F)c(F)c2OC2COC2)[C@H](C(=O)Nc2ccc(F)c(C(=N)NO)c2)O[C@@]1(C)C(F)(F)F , please?
Key: 82.2

* * *

assay name: Pharmacokinetic determination in KM mice
Format: in vivo
setup conditions: mouse, in vivo, po; KM mice, i.g. 10 mg/kg; read-out: Area under the curve AUC0-t
value type: AUC(0-t)
Put your answer as a value accompanied by its unit after it.

Exercise: Recorded AUC(0-t) for C[C@H]1[C@@H](c2ccc(F)c(F)c2OC2COC2)[C@H](C(=O)Nc2ccc(F)c(C(=N)NO)c2)O[C@@]1(C)C(F)(F)F , please?
Key: 7540 ng·h/mL

* * *

assay name: Pharmacokinetic determination in KM mice
Format: in vivo
setup conditions: mouse, in vivo, po; KM mice, i.g. 10 mg/kg; read-out: Time to peak Tmax
value type: Tmax (min)
Give your result in min as a bare value.

Exercise: Recorded Tmax for C[C@H]1[C@@H](c2ccc(F)c(F)c2OC2COC2)[C@H](C(=O)Nc2ccc(F)c(C(=N)NO)c2)O[C@@]1(C)C(F)(F)F [Example 11] , please?
Key: 15

* * *

assay name: Pharmacokinetic determination in KM mice
Assay type: in vivo
setup conditions: male, KM, mouse, in vivo, iv, 1 mg/kg
value type: AUC(0-t) (ng·h/mL)
Give your result in ng·h/mL as a bare value.

Exercise: Recorded AUC(0-t) for COc1c([C@H]2[C@H](C(=O)Nc3ccnc(C(N)=O)c3)O[C@@](C)(C(F)(F)F)[C@H]2C)ccc(F)c1F [Reference compound, reference compound] , please?
Key: 1020

* * *

assay name: Pharmacokinetic determination in KM mice
Type: in vivo
setup conditions: mouse, in vivo, iv; KM mice, i.v. 1 mg/kg; read-out: Half-life t1/2 (converted)
value type: half-life
Put your answer as a value accompanied by its unit after it.

Exercise: Recorded half-life for C[C@H]1[C@@H](c2ccc(F)c(F)c2OC2COC2)[C@H](C(=O)Nc2ccc(F)c(C(=N)NO)c2)O[C@@]1(C)C(F)(F)F , please?
Key: 1.44 h

* * *

assay name: Pharmacokinetic determination in SD rats
Format: in vivo
setup conditions: male, rat, po, gavage 10 mg/kg, plasma, read-out: Time to peak Tmax
value type: Tmax (min)
Give your result in min as a bare value.

Exercise: Recorded Tmax for COc1c([C@H]2[C@H](C(=O)Nc3ccnc(C(N)=O)c3)O[C@@](C)(C(F)(F)F)[C@H]2C)ccc(F)c1F [Reference compound, reference compound] , please?
Key: 37.8

* * *

assay name: Pharmacokinetic determination in KM mice
Assay type: in vivo
setup conditions: male, KM, mouse, in vivo, iv, 1 mg/kg
value type: Cmax (ng/mL)
Give your result in ng/mL as a bare value.

Exercise: Recorded Cmax for COc1c([C@H]2[C@H](C(=O)Nc3ccnc(C(N)=O)c3)O[C@@](C)(C(F)(F)F)[C@H]2C)ccc(F)c1F [Reference compound, reference compound] , please?
Key: 621

Ref: patent EP4775574A1
